FYI, the data here is from patent US20050009840A1.

IC50 values by entry
Target system: Met kinase domain (GST fusion protein) (Homo sapiens, UniProt P08581)
Construct: Purified GST fusion protein containing the Met kinase domain
Sequence (P08581 1078-1345 limits assumed): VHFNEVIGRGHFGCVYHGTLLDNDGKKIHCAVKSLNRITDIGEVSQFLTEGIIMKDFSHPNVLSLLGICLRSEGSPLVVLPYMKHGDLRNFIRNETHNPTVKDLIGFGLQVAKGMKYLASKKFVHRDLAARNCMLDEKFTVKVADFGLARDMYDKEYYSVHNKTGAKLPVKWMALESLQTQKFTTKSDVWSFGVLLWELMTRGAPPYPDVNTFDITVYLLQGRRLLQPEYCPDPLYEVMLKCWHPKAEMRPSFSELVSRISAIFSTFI
Protocol description: Met transphosphorylation assay (ELISA, poly(glu-tyr) substrate);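 note: Cell-free ELISA with plate-bound poly(Glu:Tyr 4:1) phosphorylated by GST-fused Met kinase domain plus ATP and Mn2+, phosphotyrosine detected by anti-phosphotyrosine antibody with HRP and ABTS read-out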
Assay type: biochemical
Experimental parameters: read-out: Met IC50
Give your result in µM as a bare value.

>>> quantitative_readout("CN(C)CCS(=O)(=O)Nc1cccc(-c2cnc(N)c(OCc3c(F)ccc(F)c3Cl)n2)c1")
2.28
>>> quantitative_readout("Nc1ncc(-c2cccc(F)c2)cc1OCc1c(Cl)cccc1Cl")
13.8
>>> quantitative_readout("Nc1ncc(-c2ccc(OCCN3CCOCC3)cc2)nc1OCc1c(Cl)cccc1Cl")
1.25
>>> quantitative_readout("Nc1ncc(-c2ccc(OCC(=O)N3CCC[C@@H]3CN3CCCC3)cc2)cc1OCc1c(Cl)cccc1Cl")
0.53
>>> quantitative_readout("Nc1ncc(-c2ccc(C(=O)N(CC3CC3)C[C@H]3CCCN3)cc2)cc1OCc1c(Cl)cccc1Cl")
0.29

Exercise: I'm curious: which IC50 was measured for CC(Oc1nc(-c2cccc(C(=O)NCCCN3CCCC3)c2)cnc1N)c1c(Cl)ccc(F)c1Cl (stereo not shown) [II-96] tested on Met kinase domain (GST fusion protein) (Homo sapiens, UniProt P08581)?
Key: 0.15

Exercise: I'm curious: which IC50 was measured for CC(Oc1nc(-c2ccc(C(=O)N3CCN(C)CC3)cc2)cnc1N)c1c(Cl)ccc(F)c1Cl (stereo not shown) tested on Met kinase domain (GST fusion protein) (Homo sapiens, UniProt P08581)?
Key: 0.16

Exercise: I'm curious: which IC50 was measured for Nc1ncc(-c2ccc(C(=O)N3CCC[C@@H]3CN3CCCC3)cc2)cc1OCc1c(F)cccc1C(F)(F)F tested on Met kinase domain (GST fusion protein) (Homo sapiens, UniProt P08581)?
Key: 0.15

Exercise: I'm curious: which IC50 was measured for Nc1ncc(-c2cccc(C(=O)N3CC[C@H](N)C3)c2)nc1OCc1c(F)ccc(F)c1Cl tested on Met kinase domain (GST fusion protein) (Homo sapiens, UniProt P08581)?
Key: 0.91
